These entries and their values trace back to the supplement of paper PMC10127200.

- System: OVCAR4
- EXPERIMENT_NOTES: Euclidean distance of Cell Painting phenotypic profile (signed KS, 77 features) to DMSO centroid (dimensionless distance); 5 or 10 uM (library dependent); higher = stronger phenotypic change vs DMSO (phenoactivity)
- RUN_PARAMETERS: 48 h
Structures can show the parent of a compound that is named as a salt.
PROPERTY_NAME: Euclidean distance
Answer with a bare number; do not write a unit.

Consider the worked cases shown below.
molecule="Cc1onc(-c2ccccc2)c1C(=O)N[C@@H]1C(=O)N2[C@@H]1SC(C)(C)[C@@H]2C(=O)O [Oxacillin sodium monohydrate]" value_measured=1.37
molecule=OC1(c2ccc(Cl)c(C(F)(F)F)c2)CCN(CCCC(c2ccc(F)cc2)c2ccc(F)cc2)CC1 value_measured=4.03
molecule=COc1ccc([C@@H]2CC(=O)c3c(O)cc(O)cc3O2)cc1O value_measured=1.23

Now for a further molecule.
Problem: Using the record for CC12CC3CC(C)(C1)CC(N)(C3)C2 [Memantine HCl] , report its Euclidean distance.
Result: 1.51
